# assayInfo: Metabolic stability and metabolite formation in pooled human liver microsomes with NADPH and/or UDPGA
# Type: in vitro ADME
# testConditions: human, microsomes, pH 7.4, 1 µM compound, 1 mg/mL pooled HLMs with NADPH + UDPGA (phase I + II); read-out: Half-life
measureName: half-life at 1 µM (min)
Response body: numeric value in min, unit text excluded.

Quick check: half-life at 1 µM of Cc1ccc(N)cc1C(=O)N[C@H](C)c1cccc2ccccc12 [GRL0617] ?
29.5

----------
# assayInfo: Metabolic stability and metabolite formation in pooled human liver microsomes with NADPH and/or UDPGA
# Assay type: in vitro ADME
# testConditions: human, microsomes, pH 7.4, NADPH; in vitro-in vivo extrapolation, well-stirred model; read-out: Intrinsic clearance (in vivo) CLint
measureName: CLint scaled at 1 µM (mL/min/kg)
API: value field is a number in mL/min/kg; no unit string.

GET /values?readout=CLint scaled at 1 µM&item= "Cc1ccc(N)cc1C(=O)N[C@H](C)c1cccc2ccccc12"
27

----------
# assayInfo: Metabolic stability and metabolite formation in pooled human liver microsomes with NADPH and/or UDPGA
# Assay type: in vitro ADME
# testConditions: human, microsomes, pH 7.4, HLMs with NADPH + UDPGA; read-out: Intrinsic clearance (in vitro) Clint
measureName: microsomal CLint at 1 µM (µL/min/mg)
Numbers only here, please. The scale is µL/min/mg.

Entry Cc1ccc(N)cc1C(=O)N[C@H](C)c1cccc2ccccc12 [GRL0617] has what microsomal CLint at 1 µM?
23.5

----------
# System: CYP3A4/3A5
# assayInfo: Metabolic stability in Silensome CYP3A4 (CYP3A4/3A5 contribution)
# Assay type: in vitro ADME, human
# testConditions: human
measureName: half-life at 1 µM (min)
Give the quantity in min, number only.

Return reported half-life at 1 µM; argument: "Cc1ccc(N)cc1C(=O)N[C@H](C)c1cccc2ccccc12"
85.1

----------
# assayInfo: in vitro
# Format: in vitro ADME, human
# testConditions: human, microsomes
measureName: half-life at 1 µM (min)
Please reply with the bare figure in min and do not write the unit itself.

# input compound: "Cc1ccc(N)cc1C(=O)N[C@H](C)c1cccc2ccccc12" ; wanted: its half-life at 1 µM
17.4

----------
# assayInfo: Metabolic stability and metabolite formation in pooled human liver microsomes with NADPH and/or UDPGA
# Format: in vitro ADME
# testConditions: human, microsomes, pH 7.4, Half-life
measureName: half-life at 1 µM (min)
Just the number please, in min, no unit attached.

What value of half-life at 1 µM has been recorded for this entry: CC(=O)Nc1ccc(C)c(C(=O)N[C@H](C)c2cccc3ccccc23)c1 [HY-17542]
5.26

----------
# Tested on: CYP3A4/3A5
# assayInfo: Metabolic stability in Silensome CYP3A4 (CYP3A4/3A5 contribution)
# Format: in vitro ADME, human
# testConditions: human; Silensome CYP3A4/3A5 with NADPH; read-out: Intrinsic clearance (in vitro) Clint
measureName: microsomal CLint at 1 µM (µL/min/mg)
Give a bare numeral; the unit µL/min/mg is implied.

# get_value(readout='microsomal CLint at 1 µM', item= Cc1ccc(N)cc1C(=O)N[C@H](C)c1cccc2ccccc12 [GRL0617] )
8.14

----------
# assayInfo: Metabolic stability and metabolite formation in pooled human liver microsomes with NADPH and/or UDPGA
# Format: in vitro ADME
# testConditions: human, microsomes, pH 7.4, 1 µM compound, 1 mg/mL pooled HLMs with NADPH (phase I); read-out: Half-life
measureName: half-life at 1 µM

Entry under review: "Cc1ccc(N)cc1C(=O)N[C@H](C)c1cccc2ccccc12" . Reported half-life at 1 µM?
< 30 min
